src = patent US20140314784A1

Target: human CXCR4 (human, UniProt P61073 1-352)
Sequence (P61073 whole entry): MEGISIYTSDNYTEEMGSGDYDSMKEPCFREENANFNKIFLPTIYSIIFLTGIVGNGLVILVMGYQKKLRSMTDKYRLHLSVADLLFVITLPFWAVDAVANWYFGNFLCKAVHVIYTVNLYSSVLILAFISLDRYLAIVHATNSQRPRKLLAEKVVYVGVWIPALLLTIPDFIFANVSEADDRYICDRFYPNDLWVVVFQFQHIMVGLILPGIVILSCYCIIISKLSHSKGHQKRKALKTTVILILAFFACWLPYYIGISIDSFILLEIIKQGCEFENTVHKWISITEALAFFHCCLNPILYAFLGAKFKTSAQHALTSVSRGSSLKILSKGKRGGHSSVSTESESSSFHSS
Assay: cell-based or functional assay
Answer NOT MET if Jurkat chemotaxis inhibition IC50 pM is under 1000 pM, and MET if it is 1000 pM or more.

binder	assignedClass
4C1 (antibody, V domains shown, Fully human monoclonal antibody from XenoMouse hybridoma (strains XMG2 IgG2 or XMG4 IgG4, kappa/lambda); Tested as hybridoma supernatant or purified antibody; also called mAb 4C1; Mab4C1) VH: QVQLVESGGGVVQPGRSLRLSCAASGFTFSSYGMHWVRQAPGKGLEWVAVISYDGSNKYYADSVKGRFTISRDNSKNTLYLQMNSLRAEDTAVYYCTRGGLAARRNYYYSYGMDVWGQGTTVTVSS VL: DIQMTQSPSSLSASVGDRVTITCRASQDIRNDLGWYQQKPGKAPKRLIYAASSLQSGVPSRFSGSGSGTQFTLTISSLQPEDFATYYCLQHNSYPLTFGGGTKVQIK	MET
2A4 (antibody, V domains shown, Fully human monoclonal antibody from XenoMouse hybridoma; also called mAb 2A4; Mab2A4) VH: QVQLVESGGGVVQPGRSLRLSCAASGFTFSSYGMHWVRQAPGKGLEWVAVISYDGSNKYYADSVKGRFTISRDNSKNTLYLQMNSLRAEDTAVYYCTRGGLAARRNYYYSYGTDVWGQGTTVTVSS VL: DIQMTQSPSSLSASVGDRVTITCRASQDIRNDLGWYQQKPGKAPTRLIYAASSLQSGVPSRFSGSGSGTQFTLTISSLQPEDFATYYCLQHNSYPLTFGGGTKVQIK	NOT MET
5C9 (antibody, V domains shown, Fully human monoclonal antibody from XenoMouse hybridoma (lambda light chain)) VH: QVQLVESGGGVVQPGRSLRLSCAASGFTFSSYGLHWVRQSPGKGLEWVAVISYDGSKKYYADSVKGRFSISRDNSKNTLYLQMNSLRAEDTAVYYCARDRPSRYSSCMDVWGQGTTVTVSS VL: QSALTQPASVSGSPGQSITISCTGTSSDVGSNNFVSWYQQHPGKAPKLMIYEVSKRPSGVSNRFSGSKSGNTASLTISGLQAEDEADYYCCSYAGSNTLVFGGGTKLTVL	MET
6C7 (antibody, V domains shown, Fully human monoclonal antibody from XenoMouse hybridoma; also called antibody 6C7; mAb 6C7) VH: QVQLVESGGGVVQPGRSLRLSCAASGFTFSNYVMHWVRQAPGKGLEWVAVIWYDGSNKYYADSVKGRFTISRDNSKNTLSLQMNSLRAEDTAVYYCERGEGYYGSGSRYRGYYYGMDVWGQGTTVTVSS VL: DIQMTQSPSSLSASVGDRVTITCRASQGIRTDLGWYQQKPGKAPKRLIYAASSLQSGVPSRFSGSGSGTEFTLTISSLQPEDFATYYCLQHNSYPRTFGQGTKVEIK	NOT MET
7C8 (antibody, V domains shown, Fully human monoclonal antibody from XenoMouse hybridoma) VH: QVQLVESGGGVVQPGRSLRLSCAASGFTFSSYGMHWVRQAPGKGLEWVAVIWYDGTYKYYADSVRGRFTISRDNSKNTLYLQMNSLRAEDTAVYYCARGPLLRYFDWLSDYWGQGTLVTVSS VL: DIQMTQSPSSLSASVGDRVTITCRASQGIRNDLGWYQQKPGKAPKRLIYAATSLQSGVPSRFSGSGSGTEFTLTISSLQPEDFATYYCLQHNNYPRTFGGGTKVEIK	MET
